targetDesc: T1, ROR1 on stably transgenic ROR1-expressing cells MDA-MB-231-ROR1 (UniProt Q01973 30-937, limits assumed)
T1 construct: whole, on cells
T1 sequence (Q01973 30-937 limits assumed): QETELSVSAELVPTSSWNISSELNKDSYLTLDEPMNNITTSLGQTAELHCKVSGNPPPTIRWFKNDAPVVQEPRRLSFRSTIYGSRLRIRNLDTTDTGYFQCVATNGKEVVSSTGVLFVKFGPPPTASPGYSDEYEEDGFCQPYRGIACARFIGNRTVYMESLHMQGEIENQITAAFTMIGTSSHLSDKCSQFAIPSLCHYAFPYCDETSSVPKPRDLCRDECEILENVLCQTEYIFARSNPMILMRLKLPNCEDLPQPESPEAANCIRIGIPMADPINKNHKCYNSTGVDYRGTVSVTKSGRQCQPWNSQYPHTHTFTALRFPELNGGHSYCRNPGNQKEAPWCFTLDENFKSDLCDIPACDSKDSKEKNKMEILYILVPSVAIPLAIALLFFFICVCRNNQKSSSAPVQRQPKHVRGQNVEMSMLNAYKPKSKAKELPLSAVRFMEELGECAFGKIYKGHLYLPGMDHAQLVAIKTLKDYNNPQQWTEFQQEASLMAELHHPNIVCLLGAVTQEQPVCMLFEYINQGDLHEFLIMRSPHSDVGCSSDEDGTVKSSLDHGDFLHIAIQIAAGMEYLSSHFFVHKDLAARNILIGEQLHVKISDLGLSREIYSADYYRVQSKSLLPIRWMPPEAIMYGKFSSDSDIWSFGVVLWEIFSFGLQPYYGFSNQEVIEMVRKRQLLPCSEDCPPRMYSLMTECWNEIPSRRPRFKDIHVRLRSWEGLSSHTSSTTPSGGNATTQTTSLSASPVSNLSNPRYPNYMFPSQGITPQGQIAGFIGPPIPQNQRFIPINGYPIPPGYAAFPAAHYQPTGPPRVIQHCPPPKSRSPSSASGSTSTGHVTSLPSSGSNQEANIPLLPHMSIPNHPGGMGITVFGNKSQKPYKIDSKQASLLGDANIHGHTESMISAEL
assayDetails: flow cytometry on MDA-MB-231-ROR1 cells
measuredMetric: EC50 (µg/mL)
The reply should be a number in µg/mL, with the unit left off.

humanized antibody hu17-H4L1 (antibody, human IgG1, kappa, L234A L235A, V domains shown) VH: QVTLKESGPTLVKPTQTLTLTCTFSGFSLSTSGMGVAWIRQPPGKALEWLAHIWWDDDKRYGPSLKSRLTITKDTSKNQVVLTMTNMDPVDTATYYCARPQFITTVVAFYWYFDVWGQGTTVTVSS VL: DILLTQSPSSLSVSVGDRVTITCRASENIYSNLAWYQQKPGKAPKLLVYAATNLADGVPSRFSGSGSGTQYTLTISSLQPEDFATYYCQHFWGTPWTFGGGTKLEIKR ... 0.101
humanized antibody hu17-H3L1 (antibody, human IgG1, kappa, L234A L235A, V domains shown) VH: QVTLKESGPTLVKPTQTLTLTCSFSGFSLSTSGMGVAWIRQPPGKALEWLAHIWWDDDKRYNPSLKSRLTITKDTSKNQVVLTMTNMDPVDTATYYCARPQFITTVVAFYWYFDVWGQGTTVTVSS VL: DILLTQSPSSLSVSVGDRVTITCRASENIYSNLAWYQQKPGKAPKLLVYAATNLADGVPSRFSGSGSGTQYTLTISSLQPEDFATYYCQHFWGTPWTFGGGTKLEIKR ... 0.107

Field: next binder
If you can, please state the reported EC50 value of humanized antibody hu17-H2L1 (antibody, human IgG1, kappa, L234A L235A, V domains shown) VH: EVTLKESGPTLVKPTQTLTLTCSFSGFSLSTSGMGVAWIRQPPGKALEWLAHIWWDDDKRYNPALKSRLTITKDTSKNQVVLTITNVDPVDTATYYCARPQFITTVVAFYWYFDVWGQGTTVTVSS VL: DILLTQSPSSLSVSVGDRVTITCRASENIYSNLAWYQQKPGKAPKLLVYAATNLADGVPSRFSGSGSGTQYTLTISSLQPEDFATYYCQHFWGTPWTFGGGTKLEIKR . 0.114
